species: Mus musculus; experiment: Stimulation of alkaline phosphatase activity in mouse calvarial osteoblasts assessed as concentration required for maximum activity after 48 hrs by spectrophotometric analysis
Reported Concentration giving maximum ALP activity is given for each of the following molecules.
Only the number, expressed in pM, is required.

>>> test_value("CCOC(=O)C1=C(C)NC(C)=C(C(=O)OCC)C1c1cc(C(C)(C)C)c2oc(=O)c(C(=O)OC)cc2c1")
100
>>> test_value("CCOC(=O)C1=C(C)NC2=C(C(=O)CCC2)C1c1cc(C(C)CC)c2oc(=O)c(C(=O)OCC)cc2c1 (racemic)")
1

Consider the additional molecule presented here.
Enquiry: I am curious: what Concentration giving maximum ALP activity value has been reported for CCOC(=O)C1=C(C)NC2=C(C(=O)CCC2)C1c1cc(C(C)CC)c2oc(=O)c(C(=O)OC)cc2c1 (stereo unspecified) ?
Return: 100
